molecular target: UniProt Q8IHR8; test: IC50 for competition of protein binding to Kinobeads; conditions: assay detail: Kinobeads competition in P. falciparum blood-stage lysate;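 further: native unpurified kinases from lysate captured on beads bearing immobilized kinase inhibitors, with bead-bound kinases quantified by mass spectrometry across compound doses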
pIC50: −log10 of the molar value.
attribute.measured: pIC50

Req: Field request: pIC50 | item: O=c1[nH]c2ccc(Cl)cc2c(NC2CN3CCC2CC3)c1-c1nc2ccccc2[nH]1 (stereo unspecified) [CHIR-124]
Resp: < 4.70

====

target: UniProt Q8IJP3; assay: IC50 for competition of protein binding to Kinobeads; details: assay detail: Kinobeads competition in P. falciparum blood-stage lysate
attribute.measured: IC50

Req: Report IC50 for O=c1[nH]c2ccc(Cl)cc2c(NC2CN3CCC2CC3)c1-c1nc2ccccc2[nH]1 (stereo unspecified) [CHIR-124] tested on UniProt Q8IJP3.
Resp: > 20 µM

====

molecular target: UniProt Q8I1Z8; assay: IC50 for competition of protein binding to Kinobeads; conditions: assay detail: Kinobeads competition in P. falciparum blood-stage lysate
attribute.measured: IC50

Req: If you can, please state the reported IC50 value of O=c1[nH]c2ccc(Cl)cc2c(NC2CN3CCC2CC3)c1-c1nc2ccccc2[nH]1 (stereo unspecified) .
Resp: > 20 µM

====

target: UniProt Q8I2Q0; experiment: IC50 for competition of protein binding to Kinobeads; details: assay detail: Kinobeads competition in P. falciparum blood-stage lysate
pIC50: −log10 of the molar value.
attribute.measured: pIC50

Req: Bench note: what pIC50 did O=c1[nH]c2ccc(Cl)cc2c(NC2CN3CCC2CC3)c1-c1nc2ccccc2[nH]1 (stereo unspecified) show?
Resp: < 4.70

====

target: UniProt Q8I388; assay: IC50 for competition of protein binding to Kinobeads; details: assay detail: Kinobeads competition in P. falciparum blood-stage lysate
attribute.measured: IC50

Req: GET /values?readout=IC50&item= O=c1[nH]c2ccc(Cl)cc2c(NC2CN3CCC2CC3)c1-c1nc2ccccc2[nH]1 (stereo unspecified)
Resp: > 20 µM

====

target: UniProt O96221; assay: IC50 for competition of protein binding to Kinobeads; conditions: assay detail: Kinobeads competition in P. falciparum blood-stage lysate
pIC50: −log10 of the molar value.
attribute.measured: pIC50

Req: Name the reported pIC50 value associated with the compound O=c1[nH]c2ccc(Cl)cc2c(NC2CN3CCC2CC3)c1-c1nc2ccccc2[nH]1 (stereo unspecified)
Resp: < 4.70

====

molecular target: UniProt Q8I5S7; assay: IC50 for competition of protein binding to Kinobeads; conditions: assay detail: Kinobeads competition in P. falciparum blood-stage lysate
attribute.measured: IC50

Req: Fill in: IC50 of O=c1[nH]c2ccc(Cl)cc2c(NC2CN3CCC2CC3)c1-c1nc2ccccc2[nH]1 (stereo unspecified) is ___
Resp: > 20 µM

====

biological target: UniProt Q8IBQ9; experiment: IC50 for competition of protein binding to Kinobeads; details: assay detail: Kinobeads competition in P. falciparum blood-stage lysate
attribute.measured: IC50

Req: So what's the measured IC50 for this one? O=c1[nH]c2ccc(Cl)cc2c(NC2CN3CCC2CC3)c1-c1nc2ccccc2[nH]1 (stereo unspecified)
Resp: > 20 µM

====

biological target: UniProt Q8ID43; assay: IC50 for competition of protein binding to Kinobeads; details: assay detail: Kinobeads competition in P. falciparum blood-stage lysate
pIC50: −log10 of the molar value.
attribute.measured: pIC50

Req: Request the reported pIC50 associated with O=c1[nH]c2ccc(Cl)cc2c(NC2CN3CCC2CC3)c1-c1nc2ccccc2[nH]1 (stereo unspecified)
Resp: < 4.70
